B1: HDV Ribozyme (parent)
chain: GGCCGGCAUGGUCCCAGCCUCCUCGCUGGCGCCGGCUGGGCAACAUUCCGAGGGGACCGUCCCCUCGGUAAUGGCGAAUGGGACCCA

Variants of: B1
Assay: self-cleavage, relative activity (ratio to wild type); higher = more cleavage; co-transcriptional
Binary classification by self-cleavage, with 0.2 as an inclusive lower bound for 1 (yes); all other cases are 0 (no).

G10U A83C
0 (no)
C24U C48U
1 (yes)
A45U U46G
1 (yes)
U37G U65A
0 (no)
G2U C48A
0 (no)

Exam item: decide whether the reported self-cleavage for C4G G17C is at least 0.2.
0 (no)

Exam item: decide whether the reported self-cleavage for G28A G68A is at least 0.2.
0 (no)

Exam item: decide whether the reported self-cleavage for A8G A56C is at least 0.2.
1 (yes)

Exam item: decide whether the reported self-cleavage for C33U C36U is at least 0.2.
1 (yes)

Exam item: decide whether the reported self-cleavage for C7G U65C is at least 0.2.
0 (no)

Exam item: decide whether the reported self-cleavage for C33A G59A is at least 0.2.
1 (yes)

Exam item: decide whether the reported self-cleavage for C22G C66A is at least 0.2.
0 (no)

Exam item: decide whether the reported self-cleavage for A42U C85G is at least 0.2.
1 (yes)

Exam item: decide whether the reported self-cleavage for C7A C32A is at least 0.2.
1 (yes)

Exam item: decide whether the reported self-cleavage for G40A G76U is at least 0.2.
1 (yes)

Exam item: decide whether the reported self-cleavage for C33A A78U is at least 0.2.
0 (no)

Exam item: decide whether the reported self-cleavage for C32U C36A is at least 0.2.
0 (no)

Exam item: decide whether the reported self-cleavage for U37A G68U is at least 0.2.
0 (no)

Exam item: decide whether the reported self-cleavage for C36G C41A is at least 0.2.
1 (yes)

Exam item: decide whether the reported self-cleavage for C7A A83G is at least 0.2.
0 (no)

Exam item: decide whether the reported self-cleavage for G1U A8C is at least 0.2.
1 (yes)

Exam item: decide whether the reported self-cleavage for U23A G74U is at least 0.2.
1 (yes)

Exam item: decide whether the reported self-cleavage for C21G C44U is at least 0.2.
0 (no)

Exam item: decide whether the reported self-cleavage for G5C C57U is at least 0.2.
0 (no)

Exam item: decide whether the reported self-cleavage for A8U C32U is at least 0.2.
1 (yes)

Exam item: decide whether the reported self-cleavage for C33A A87G is at least 0.2.
0 (no)

Exam item: decide whether the reported self-cleavage for C32U U72C is at least 0.2.
1 (yes)

Exam item: decide whether the reported self-cleavage for G31A U60G is at least 0.2.
1 (yes)

Every entry's value here was drawn from the RNAGym collection of RNA variant scans (doi:10.7554/elife.80360).
